Assay: growth suppression of PTEN-deleted HCT116, pilot screen, cell-based, HCT116 clonal line, CellTiter-Glo (AID 824);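 note: 0% = 20 µM Hyamine control and 100% = vehicle cell control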
Conditions: 60 h, at 10 µM, active compounds read low
Records with an inconclusive call do not appear.
What viability was measured for each of the following?
Number in %, nothing else.

QUERY: Give viability for the following compound: O=C(NC1CCCCCC1)C1CCN(S(=O)(=O)c2cccc3cccnc23)CC1
RESULT: 105

QUERY: Read the entry COc1ccc(NC(=O)c2cc3ccccn3n2)cc1 and write its reported viability.
RESULT: 73.1

QUERY: Output viability of CCCCc1ccc(-c2nc(-c3ccncc3)no2)cc1
RESULT: 75.9

QUERY: Check the records and state viability for COCCN(C(=O)Nc1ccccc1)C(C)c1cccnc1 (stereo unspecified)
RESULT: 97.5

QUERY: State its viability for this compound: Cc1cc(-c2ccco2)n(CC(=O)NCCCc2ccccc2)n1
RESULT: 97

QUERY: Answer with reported viability of c1ccc(N2CCN(c3nnnn3-c3ccccc3)CC2)cc1
RESULT: 75.7

The reported measurements were obtained from PubChem BioAssay.
